Biological target: AhR in SBMC cells (Rattus norvegicus, UniProt P41738)
Construct: endogenous in cells
Sequence (P41738 10-853): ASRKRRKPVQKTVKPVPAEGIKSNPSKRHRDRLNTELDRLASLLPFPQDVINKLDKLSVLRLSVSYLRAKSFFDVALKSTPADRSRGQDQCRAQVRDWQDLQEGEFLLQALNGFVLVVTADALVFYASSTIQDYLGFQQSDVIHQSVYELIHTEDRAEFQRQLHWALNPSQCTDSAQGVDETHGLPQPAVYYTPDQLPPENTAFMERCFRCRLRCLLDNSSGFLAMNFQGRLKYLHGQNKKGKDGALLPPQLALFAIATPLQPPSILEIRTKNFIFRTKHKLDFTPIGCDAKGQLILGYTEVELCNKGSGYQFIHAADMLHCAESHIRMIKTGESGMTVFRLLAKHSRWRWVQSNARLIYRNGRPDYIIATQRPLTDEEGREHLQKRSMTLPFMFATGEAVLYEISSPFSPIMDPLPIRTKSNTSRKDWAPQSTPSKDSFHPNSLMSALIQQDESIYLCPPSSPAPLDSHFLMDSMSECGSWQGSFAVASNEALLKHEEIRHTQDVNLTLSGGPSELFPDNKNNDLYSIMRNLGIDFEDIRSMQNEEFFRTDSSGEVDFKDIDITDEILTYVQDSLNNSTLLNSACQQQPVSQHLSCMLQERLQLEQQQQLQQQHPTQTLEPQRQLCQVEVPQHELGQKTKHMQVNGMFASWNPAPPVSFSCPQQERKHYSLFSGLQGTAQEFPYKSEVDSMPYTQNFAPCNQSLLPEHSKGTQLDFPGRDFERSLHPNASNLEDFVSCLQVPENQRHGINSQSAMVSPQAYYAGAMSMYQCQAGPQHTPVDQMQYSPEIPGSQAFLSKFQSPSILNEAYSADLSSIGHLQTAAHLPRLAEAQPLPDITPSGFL
Experiment: Live whole cell (RSBMC) competitive uptake/binding assay with 3H-TCDD
pIC50: −log10 of the molar value.
endpoint label: pIC50

Clc1cc2c(cc1Cl)Oc1cc(Cl)c(Cl)cc1O2 tested on AhR in SBMC cells (Rattus norvegicus, UniProt P41738) gave pIC50: ~8.43
